experiment description: Acute toxicity (LD50) in rats
experimental context: rat, in vivo, po, after 14 days, read-out: LD₅₀
Procedure: Thus established LD₅₀ values for the COMPOUND D2 in substantially pure form in mice and rats after 14 days p.o. and 7 days i.v. are: in mice, p.o […], i.v. 163 mg/kg; in rats, p.o. 1721 mg/kg, i.v. 50 mg/kg.
quantity measured: LD50 at 336 h (mg/kg)
Give a bare numeral; the unit mg/kg is implied.

What the record says about COC1=Cc2ccccc2C(=CC(=O)O)c2ccsc21 [COMPOUND D2] : LD50 at 336 h is 1720

====

experiment description: Acute toxicity (LD50) in rats
experimental context: rat, in vivo, iv, after 7 days, read-out: LD₅₀
quantity measured: LD50 at 168 h (mg/kg)
Give a bare numeral; the unit mg/kg is implied.

What the record says about COC1=Cc2ccccc2C(=CC(=O)O)c2ccsc21 [COMPOUND D2] : LD50 at 168 h is 50
